Target: Cytochrome P450 3A4 (Homo sapiens)
Experiment: Cytochrome panel assay with activity outcomes
Conditions: recombinant CYP, pro-luciferin dealkylation, luminescence, p450-cyp3a4; series mostly up to 57.1 µM
Screen size: about 16,000 compounds; about 5,100 (32%) were called active. Inconclusive results (about 25%) are left out. Calls come from the whole dose curve; as a rule, active = well fitted curve in the direction sought with a large enough effect; inconclusive = small, poorly fitted or top-dose-only effect, or effect the other way; inactive = no such curve, though single readings can be large or run the other way. The list shows a part of the results.
Respond only with the outcome that fits, drawn from active, inactive

[Q] // param item: COc1ccccc1CNc1ncnc2ccc(-c3ccccc3CN(C)C)cc12 ; yields the recorded call
[A] active

[Q] Please share the test call associated with CCOc1ccc(OCc2ccc(C(=O)NCc3cccnc3)o2)cc1 .
[A] active

[Q] Call for entry COc1ccc(C(=O)N2CCC[C@@]3(CCN(Cc4cc(C(F)(F)F)cc(C(F)(F)F)c4)C3)C2)cc1 :
[A] active

[Q] In this assay, the call recorded for O=C(CCn1c(=O)[nH]c2ccsc2c1=O)Nc1ccc(F)c(F)c1 was what?
[A] inactive

[Q] How was O=C(c1cccc(F)c1)N1CCC2(CCCN(Cc3ccccc3)C2)CC1 classified in this test?
[A] inactive

[Q] Which outcome was assigned to COc1cc(NC(=O)c2ccccc2Cl)ccc1NC(=O)c1ccco1 in this test?
[A] active

[Q] Status in this test for COCCNC(=O)CCCCCn1c(=S)[nH]c2ccccc2c1=O ?
[A] active

[Q] Recorded test call requested for O=C(O)c1cc(S(=O)(=O)NCC2CCCO2)ccc1Cl (centres undefined)
[A] inactive

[Q] Dear all, I need the recorded test outcome for CCn1c(=O)[nH]c2cc(Cl)c(Cl)cc21 , thank you.
[A] active

###

Target: Cytochrome P450 3A4 (Homo sapiens) (UniProt P08684)
Sequence (P08684 whole entry, looked up): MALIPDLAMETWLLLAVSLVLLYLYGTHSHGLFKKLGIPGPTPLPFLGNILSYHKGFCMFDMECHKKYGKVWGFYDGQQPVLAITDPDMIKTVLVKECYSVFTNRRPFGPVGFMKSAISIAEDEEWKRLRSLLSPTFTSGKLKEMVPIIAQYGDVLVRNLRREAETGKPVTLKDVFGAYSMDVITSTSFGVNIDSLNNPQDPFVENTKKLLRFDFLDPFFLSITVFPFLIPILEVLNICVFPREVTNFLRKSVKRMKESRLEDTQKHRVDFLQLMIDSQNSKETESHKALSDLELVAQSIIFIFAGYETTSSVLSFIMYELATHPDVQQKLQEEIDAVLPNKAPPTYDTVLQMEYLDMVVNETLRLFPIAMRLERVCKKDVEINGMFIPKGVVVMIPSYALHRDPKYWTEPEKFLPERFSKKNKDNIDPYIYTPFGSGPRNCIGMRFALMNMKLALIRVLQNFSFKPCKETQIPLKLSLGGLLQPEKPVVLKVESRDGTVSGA
Assay: Cytochrome panel assay with activity outcomes
Settings: recombinant CYP, pro-luciferin dealkylation, luminescence, p450-cyp3a4; series mostly up to 57.1 µM
Method: The P450 gene superfamily is involved in the metabolism and clearance of xenobiotics. This assay used various human CYP P450 isozymes to measure the dealkylation of various pro-luciferin substrates to luciferin. The luciferin is then measured by luminescence after the addition of a luciferase detection reagent. […] Inhibitors and some substrates limit the production of luciferin, and decrease measured luminescence. […] 8, Detection, 1 sec, ViewLux luminescent read […]
The campaign covered roughly 16,000 compounds. About 5,100 (32%) were called active. About 25% were inconclusive and are not listed. Calls come from the whole dose curve; as a rule, active = well fitted curve in the direction sought with a large enough effect; inconclusive = small, poorly fitted or top-dose-only effect, or effect the other way; inactive = no such curve, though single readings can be large or run the other way. The list shows a part of the results.
Classes to choose from: Yes = active, No = inactive

[Q] Recorded test call requested for COc1ccccc1CNC(=O)C/C(C)=N/NC(=O)Cc1ccccc1
[A] Yes

[Q] Hi team, can someone confirm the assay call for O=C(c1ccco1)N1CCC2(CC1)CCN(c1ccccc1)CC2 ?
[A] No

[Q] Field: outcome | Entry: Cc1cc(C)c(S(=O)(=O)NCC2CCC(C(=O)NCc3ccc4c(c3)OCO4)CC2)c(C)c1 (configuration not stated)
[A] Yes

[Q] What did the test return for COc1ccc(CNc2ncncc2-c2cccc(NS(C)(=O)=O)c2)c(OC)c1 ?
[A] Yes

[Q] Per the records of this test, what outcome belongs to O=C(c1ccco1)N1CCC[C@@]2(CCN(c3ccccc3)C2)C1 ?
[A] Yes

[Q] Hello, I am checking results. What call was entered for COc1cc(/C=N\Nc2ccc([N+](=O)[O-])cc2)ccc1OCC(=O)Nc1ccc(C)c(C)c1 ?
[A] Yes

[Q] Field: outcome | Entry: COc1ccc(C2=NOC(C(=O)Nc3ccc(C(C)=O)cc3)C2)cc1OC (configuration not stated)
[A] Yes

###

Target: Cytochrome P450 3A4 (Homo sapiens)
Test: Cytochrome panel assay with activity outcomes
Conditions: recombinant CYP, pro-luciferin dealkylation, luminescence, p450-cyp3a4; series mostly up to 57.1 µM
Screen size: about 16,000 compounds; about 5,100 (32%) were called active. Another 25% or so got no clear call; they are omitted. The list shows a part of the results.
property-measured: AC50

>>> endpoint_value("C[C@@H](C(=O)NCc1ccc(S(C)(=O)=O)cc1)[C@H]1C[C@]1(C)[C@H](NC(=O)OCc1ccccc1)c1ccccc1")
"3.16 µM (active)"
>>> endpoint_value("CCOC(=O)c1cn(-c2nc(-c3ccc(Cl)cc3)cs2)c2c(F)c(N3CC(C)OC(C)C3)c(F)cc2c1=O (stereo unspecified)")
"inactive"
>>> endpoint_value("FC(F)(F)c1ccccc1-c1nccc(NCc2cccs2)n1")
"2 µM (active)"
>>> endpoint_value("NCC[C@H]1CCC[C@H](CCN)N1")
"inactive"
>>> endpoint_value("Cc1ccc(OCCNC(=O)c2cc(-n3cnnc3)ccc2Cl)cc1C")
"7.94 µM (active)"
>>> endpoint_value("CC(NC(=O)OCc1ccccc1)C(=O)NCC1CCCO1 (stereo unspecified)")
"inactive"
>>> endpoint_value("O=C(Nc1ccccc1)c1cc(-n2cnnc2)ccc1Cl")
"inactive"
>>> endpoint_value("C[C@@]12C[C@H](O)[C@@H]3[C@H](CCC4=CC(=O)CC[C@]43C)[C@H]1CC[C@@H]2c1csc(N)n1")
"2.51 µM (active)"
>>> endpoint_value("COc1ccc2[nH]cc(CCNc3ncnc4ccc(-c5cccnc5)cc34)c2c1")
"1 µM (active)"
>>> endpoint_value("COc1ccc2[nH]cc(CCNc3ncnc4ccc(-c5ccc6c(c5)OCO6)cc34)c2c1")
"2 µM (active)"

[Q] Give AC50 (Cytochrome P450 3A4 (Homo sapiens)) of the following molecule: C[C@@H](C(=O)NCc1nc2ccccc2[nH]1)[C@@H]1C[C@@]1(C)[C@@H](NC(=O)OCc1ccccc1)c1ccccc1
[A] 1 µM (active)

[Q] What AC50 appears in the records for this molecule with Cytochrome P450 3A4 (Homo sapiens)? COc1ccc(CNc2ncnc3ccc(-c4ccccc4C#N)cc23)c(OC)c1
[A] 1 µM (active)

[Q] Tell me reported AC50 for C[C@@H](C(=O)NCc1ccc(S(C)(=O)=O)cc1)[C@@H]1C[C@@]1(C)[C@@H](NC(=O)OCc1ccccc1)c1ccccc1 , tested with Cytochrome P450 3A4 (Homo sapiens).
[A] 1 µM (active)

[Q] Enter reported AC50 observed with Cytochrome P450 3A4 (Homo sapiens) for COc1ccc2nc(SCC(=O)NN)cc(C)c2c1
[A] 2.82 µM (active)

[Q] Form field: AC50 recorded for CC(C)(CO)[C@H](O)C(=O)NCCCO with Cytochrome P450 3A4 (Homo sapiens) (enter value)
[A] inactive

[Q] Item C[C@@H](C(=O)NCc1cccc2ccccc12)[C@H]1C[C@]1(C)[C@H](NC(=O)OCc1ccccc1)c1ccccc1 with Cytochrome P450 3A4 (Homo sapiens) - AC50?
[A] 0.398 µM (active)

###

Molecular target: Cytochrome P450 3A4 (Homo sapiens) (UniProt P08684)
Assay: Cytochrome panel assay with activity outcomes
Conditions: recombinant CYP, pro-luciferin dealkylation, luminescence, p450-cyp3a4; series mostly up to 57.1 µM
Hit rate of the full screen: of about 16,000 compounds, about 5,100 (32%) were called active. Inconclusive results (about 25%) are left out. Calls follow the shape of the dose curve; as a rule, active = well fitted curve in the direction sought with a large enough effect; inconclusive = small, poorly fitted or top-dose-only effect, or effect the other way; inactive = no such curve, though single readings can be large or run the other way. Some of the results follow.
Answer with one of the outcomes active, inactive

[Q] # lookup: test call for CNc1nc(-c2cccnc2)nc2ccccc12
[A] active

[Q] For O=C(CNC(=O)c1cccs1)NCC(=O)OCc1ccc(Cl)cc1 , what call appears in the results of this test?
[A] active

[Q] // outcome(item) with item = Cc1cccc(OCCCCCn2ccnc2)c1
[A] active

[Q] Can you look up the reported call for CCOC(=O)c1ccc(Nc2nc(-c3cccnc3)nc3ccccc23)cc1 for me?
[A] active

[Q] Returns: the outcome recorded for COC(=O)N1CCC[C@@]2(CCN(c3ccncc3)C2)C1 in this assay.
[A] active

[Q] Which outcome did this test record for the compound CCOC(=O)CN1N=C(/C=C/c2ccc(C)cc2)CCC1=O ?
[A] inactive

[Q] I'd appreciate the recorded outcome for Cc1cccc(CSc2cccc3cccnc23)c1 from this test.
[A] inactive

[Q] // return assay outcome for Cc1cccc(CNc2ccnc(-c3ccoc3)n2)c1
[A] active

[Q] Hey, what did the test say about CCNC(=S)NNC(=O)c1cc(C)on1 ?
[A] inactive

[Q] Could you check what this test reported for CO[C@@H]1CC[C@@]2(C)[C@@H](CC[C@@]3(C)[C@H]2CC=C2[C@H]4CC(C)(C)[C@H](O)[C@@H](OC(C)=O)[C@]4(CO)[C@H](O)C[C@]23C)[C@@]1(C)CO (tested in a mixture with another compound) ?
[A] inactive

[Q] What is the recorded call for this compound in the test? CCc1nnc(NC(=O)C2CCN(C(=O)NC3CCCCC3)CC2)s1
[A] inactive

[Q] Fill in: this test's call for CC(C)=CCC/C(C)=C/CO/N=C1/C[C@@H](O)[C@@H](O)[C@@H]2[C@@H]3C(=O)N(Cc4ccc5c(c4)OCO5)C(=O)[C@H]3CC[C@@H]12 is ___
[A] active

[Q] Dear all, I need the recorded test outcome for CC(C)N=C(N)/N=C(\N)Nc1ccc(Cl)cc1 , thank you.
[A] inactive

[Q] Which outcome was assigned to COC(=O)N1CCC[C@@]2(CCN(c3ncccn3)C2)C1 in this test?
[A] inactive

[Q] Outcome logged for CCOC(=O)N1CCC(NC(=O)C2CCN(S(=O)(=O)N3CCCC3)CC2)CC1 in this assay:
[A] inactive

[Q] Field: outcome | Entry: CCOc1ccc(NC(=S)N(Cc2ccc(N(C)C)cc2)Cc2ccco2)cc1
[A] active

[Q] Fill in: this test's call for CC(=O)Nc1sc2c(c1CN1CCN(C)CC1)CCCC2 is ___
[A] inactive

// data source = PubChem BioAssay AID1851
